Please go through the items and note down their inhibition at 2 µM.
Target: human NTPDase2 (Homo sapiens)
Construct: expressed in transfected cells; host or cells: COS-7 cells (membrane preparation)
Sequence (Q9Y5L3 whole entry): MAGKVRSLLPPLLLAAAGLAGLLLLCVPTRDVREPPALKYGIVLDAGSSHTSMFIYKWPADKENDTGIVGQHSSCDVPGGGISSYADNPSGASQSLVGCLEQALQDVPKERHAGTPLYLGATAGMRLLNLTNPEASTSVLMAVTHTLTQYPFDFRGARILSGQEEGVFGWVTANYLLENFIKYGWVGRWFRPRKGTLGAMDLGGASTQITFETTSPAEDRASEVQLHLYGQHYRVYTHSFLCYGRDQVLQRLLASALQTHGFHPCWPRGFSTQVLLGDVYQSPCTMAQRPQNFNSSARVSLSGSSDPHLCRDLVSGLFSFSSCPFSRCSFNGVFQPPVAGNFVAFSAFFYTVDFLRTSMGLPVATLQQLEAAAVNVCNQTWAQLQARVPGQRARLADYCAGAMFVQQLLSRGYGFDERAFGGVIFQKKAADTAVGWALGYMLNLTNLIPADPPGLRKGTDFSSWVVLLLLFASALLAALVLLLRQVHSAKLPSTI
Assay: Malachite green assay, human NTPDase2
Assay type: biochemical
Details: 2 μM compound; 100 µM ATP; COS-7 membrane preparation; read-out: % inhibition at 2 μM concentration, NTPDase2
A number alone suffices; assume %.

stdin: Tell me reported inhibition at 2 µM for `Nc1c(S(=O)(=O)[O-])cc(Nc2cccc(F)c2C(=O)O)c2c1C(=O)c1ccccc1C2=O.[Na+]` , tested with human NTPDase2 (Homo sapiens).
stdout: -3

stdin: Request: `Cc1cc(Nc2cccc(F)c2)c2c(c1N)C(=O)c1ccccc1C2=O`
stdout: 7

stdin: Request: Cc1cccc(Nc2cc(S(=O)(=O)O)c(N)c3c2C(=O)c2ccccc2C3=O)c1 [Compound 6, reference compound]
stdout: 22

stdin: Request: `Nc1c(S(=O)(=O)[O-])cc(Nc2cccc(CC(=O)O)c2)c2c1C(=O)c1ccccc1C2=O.[Na+]`
stdout: 7

stdin: Request: `Nc1c(S(=O)(=O)O)cc(Nc2ccc3ccccc3c2)c2c1C(=O)c1ccccc1C2=O`
stdout: 34

stdin: Request: `Nc1c(S(=O)(=O)[O-])cc(Nc2ccc(O)cc2F)c2c1C(=O)c1ccccc1C2=O.[Na+]`
stdout: 5

The measured values listed here are drawn from paper PMC7481482.
